- Tgt: Glutathione peroxidase 1 (Homo sapiens)
- Assay Info: Primary qHTS Assay for Inhibitors of Recombinant Selenoprotein Glutathione Peroxidase 1 (GPX1) (AID 1845191); note: nearly all actives have a fitted effect of over 65% in size
- Conditions: recombinant GPX1, GR-coupled NADPH fluorescence, 15 min; series mostly up to 48.8 µM
Inconclusive results are not listed. Activity calls are given as the source filed them. Calls come from the whole dose curve; as a rule, active = well fitted inhibition curve with a large enough effect; inconclusive = small, poorly fitted or top-dose-only effect; inactive = flat fitted curve, though single readings scatter.
Endpoint Name: outcome

Before answering, review these 5 worked examples.
Structure	outcome
CC(C)Oc1cc(Nc2nc(N[C@@H](C)c3ccc(F)cn3)ncc2Cl)[nH]n1	inactive
C[C@@H](N)c1ccc(C(=O)Nc2ccnc3[nH]ccc23)cc1	inactive
CCCCC(F)(F)[C@@]1(O)CC[C@H]2[C@H](CC(=O)[C@@H]2CCCCCCC(=O)O)O1	inactive
NCc1c[nH]c(=S)n1[C@H]1CCc2c(F)cc(F)cc2C1	inactive
CC1=C[C@@H]2[C@@H]([C@@H](O)C[C@@]3(C)[C@H]2C[C@@H](C)[C@]3(O)C(=O)CO)[C@@]2(C)Cc3cnn(-c4ccccc4)c3C=C12	inactive

Batch request: outcome for each of the following compounds.
1. CC[C@]1(O)C[C@H]2CN(CCC3=c4ccccc4=N[C]3[C@@](C(=O)OC)(c3cc4c(cc3OC)N(C)[C@H]3[C@@](O)(C(N)=O)[C@H](O)[C@]5(CC)C=CCN6CC[C@]43[C@@H]65)C2)C1
2. Cc1ccc(C(=O)N(CCCN)[C@@H](c2nc3cc(Cl)ccc3c(=O)n2Cc2ccccc2)C(C)C)cc1
3. O=C(CO)N1CCC(c2[nH]nc(-c3ccc(Cl)cc3)c2-c2ccncn2)CC1

["inactive", "inactive", "inactive"]

----------
- Assay Info: Drug repurposing screens with cells derived from glioblastoma tumor samples (AID 1345199); note: % is set by controls: 0 for no effect and ±100 for the full control effect; nearly all actives have a fitted effect of over 40% in size
- Conditions: GBM patient neurospheres viability, ATP luminescence, 48 h; at 46.1 µM (top of the series); tumour line C
Records with an inconclusive call do not appear.
Endpoint Name: activity, negative = cell killing (%)
One number for each entry, in %.

Before answering, review these 5 worked examples.
Compound	Endpoint Name	Reported
CC[C@H]1OC(=O)[C@H](C)[C@@H](O[C@H]2C[C@@](C)(OC)[C@@H](O)[C@H](C)O2)[C@H](C)[C@@H](O[C@@H]2O[C@H](C)C[C@H](N(C)C)[C@H]2O)[C@](C)(O)C[C@H](C)C(=NOCOCCOC)[C@H](C)[C@@H](O)[C@]1(C)O	activity, negative = cell killing	-6.06
O=C(O)c1nc(=O)[nH]c(=O)[nH]1	activity, negative = cell killing	-6.32
CN1CC(=O)N2C(Cc3c([nH]c4ccccc34)[C@H]2c2ccc3c(c2)OCO3)C1=O (stereo partly drawn)	activity, negative = cell killing	-21.6
COc1ccnc(CS(=O)c2nc3ccc(OC(F)F)cc3[nH]2)c1OC (stereo not drawn)	activity, negative = cell killing	-15.1
O=C(Nc1cccc2c(=O)cc(-c3nn[nH]n3)oc12)c1ccc(OCCCCc2ccccc2)cc1	activity, negative = cell killing	16

Batch request: activity, negative = cell killing for each of the following compounds.
1. CCC[C@H](N[C@@H](C)C(=O)N1[C@@H]2CCCC[C@H]2C[C@H]1C(=O)O)C(=O)OCC
2. CC(C)CN(C[C@@H](O)[C@H](Cc1ccccc1)NC(=O)O[C@H]1CO[C@H]2OCC[C@H]21)S(=O)(=O)c1ccc(N)cc1
3. N#Cc1c(N(CC(=O)O)CC(=O)O)sc(C(=O)O)c1CC(=O)O

-16.9
-17
4.23
